Here's a roundup of Ki values tested on UniProt:P00734, taken from various published works.

Consider the reported Ki for these compounds:
>  <compound>
CC1(C)[C@@H]2C[C@H]3OB([C@H](CCCCN)NC(=O)Cn4nc(CC(=O)O)nc4Cc4ccccc4)O[C@@]3(C)[C@H]1C2

>  <Ki>
< 50000 nM

$$$$
>  <compound>
COc1ccc(-n2nc(C(N)=O)c3c2C(=O)N(C2CCN(C4CCNC4=O)CC2)CC3)cc1 (single isomer, unassigned)

>  <Ki>
≥ 1000 nM

$$$$
>  <compound>
Cc1ccc(NS(=O)(=O)Cc2ccccc2)c(=O)n1CCCNc1ccnc2ccccc12

>  <Ki>
≤ 100 nM

$$$$
>  <compound>
COc1ccc(-n2nc(C(N)=O)c3c2C(=O)N(N2CCC(N4CCCCC4=O)CC2)CC3)cc1

>  <Ki>
≥ 1000 nM

$$$$
>  <compound>
CC(OCc1ccccc1)[C@H](NC(=O)[C@@H](CO)NS(=O)(=O)Cc1ccccc1)C(=O)NCc1ccc(C(=N)N)cc1 (stereo partly shown)

>  <Ki>
100 nM

$$$$
>  <compound>
COC[C@@H](C(=O)N1CCOCC1)N1CC[C@H](N(CC(=O)N(C)C)S(=O)(=O)CCc2ccc(Cl)s2)C1=O

>  <Ki>
< 50 nM

$$$$

System UniProt:P00734. Read-out Ki. Item COCCCC(NC(=O)C1CCCN1C(=O)C(N)Cc1ccccc1)B1OC2CC3CC(C3(C)C)C2(C)O1 (stereo not shown) . Report value. < 500 nM

System UniProt:P00734. Read-out Ki. Item Cc1ncc(COc2ccc(C(=N)N)cc2)c(CO)c1OCc1ccc(C(=N)N)cc1 . Report value. 1650 nM

System UniProt:P00734. Read-out Ki. Item N=C(N)c1cccc(C(=O)N[C@@H](C(=O)NCc2cccc3ccccc23)c2ccccc2)c1 . Report value. 1170 nM

System UniProt:P00734. Read-out Ki. Item Cc1c(CNc2ccc(C(=N)N)cc2)cnc(C=O)c1OCc1cccc(C(=N)N)c1 . Report value. 186 nM

System UniProt:P00734. Read-out Ki. Item CC1(C)C2CC3OB(C(Cc4cccc(C#N)c4)NC(=O)C4CCN4C(=O)C(N)Cc4ccccc4)OC3(C)C1C2 (stereo not shown) . Report value. < 500 nM

System UniProt:P00734. Read-out Ki. Item NCCCC[C@H](NC(=O)Cn1ncnc1Cc1ccccc1)B(O)O . Report value. < 500 nM

System UniProt:P00734. Read-out Ki. Item CC1(C)C2CC3OB([C@H](CCCCN)NC(=O)Cn4nc(CCc5ccccc5)nc4COCc4ccccc4)OC3(C)C1C2 (single isomer, unassigned) . Report value. < 500 nM

System UniProt:P00734. Read-out Ki. Item C[C@@H](C(=O)N1CCOCC1)N1CC[C@H](N(CC(N)=O)S(=O)(=O)CCc2ccc(Cl)s2)C1=O . Report value. < 25 nM

System UniProt:P00734. Read-out Ki. Item CC1(C)C2CC3OB([C@H](CCCNC(=N)N)NC(=O)Cn4nc(Cc5ccccc5)nc4-c4ccccc4)OC3(C)C1C2 (single isomer, unassigned) . Report value. < 500 nM

System UniProt:P00734. Read-out Ki. Item COC[C@@H](C(=O)N1CCOCC1)N1CC[C@H](NS(=O)(=O)C[C@@H]2CCc3cc(Cl)ccc32)C1=O . Report value. < 50 nM

System UniProt:P00734. Read-out Ki. Item N=C(N)c1ccc(CNC(=O)CNC(=O)[C@@H](CO)NS(=O)(=O)Cc2ccc(C(=O)O)cc2)cc1 . Report value. 170000 nM

System UniProt:P00734. Read-out Ki. Item CC1(C)[C@@H]2C[C@H]3OB([C@H](CCCCN)NC(=O)Cn4ncnc4Cc4ccccc4)O[C@@]3(C)[C@H]1C2 . Report value. < 500 nM

System UniProt:P00734. Read-out Ki. Item O=C([C@H](CCN1CCOCC1)N1CC[C@H](NS(=O)(=O)CCc2ccc(Cl)s2)C1=O)N1CCOCC1 . Report value. < 100 nM
